# tested-on: Carboxypeptidase A (Bos taurus, UniProt P00730)
# Sequence (P00730 111-419): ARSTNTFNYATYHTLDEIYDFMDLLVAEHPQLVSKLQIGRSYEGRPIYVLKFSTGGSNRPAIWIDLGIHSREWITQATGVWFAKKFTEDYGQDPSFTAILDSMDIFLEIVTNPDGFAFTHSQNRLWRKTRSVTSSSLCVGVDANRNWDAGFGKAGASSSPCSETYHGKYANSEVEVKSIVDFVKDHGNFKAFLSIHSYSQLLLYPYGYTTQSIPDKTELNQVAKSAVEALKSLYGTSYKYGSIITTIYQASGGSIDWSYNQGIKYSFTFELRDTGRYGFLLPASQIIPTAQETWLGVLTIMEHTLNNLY
# assay-summary: Carboxypeptidase A activity assay
# Type: biochemical
# measurement-parameters: Ki class; compounds tested in 5% DMSO, 12 concentrations
endpoint: Ki

[[record]]
molecule = "CC(C)C[C@H](N[C@@H](Cc1ccccc1)C(=O)O)C(=O)O [BW]"
value = "10 to 50 µM"

[[record]]
molecule = "CCCC(N[C@H](CCc1ccccc1)C(=O)O)C(=O)O (stereo in doubt) [BA]"
value = "> 50 µM"

[[record]]
molecule = "CC(C)CC(NC(Cc1ccccn1)C(=O)O)C(=O)O (stereo not drawn) [BF]"
value = "> 50 µM"

[[record]]
molecule = "CC(C)CC(N[C@H](CO)Cc1c[nH]cn1)C(=O)O (single isomer, unassigned) [FP]"
value = "> 50 µM"

[[record]]
molecule = "CC(C)CC(N[C@@H](Cc1cncn1Cc1ccccc1)C(=O)O)C(=O)O (single isomer, unassigned) [EZ]"
value = "> 50 µM"

[[record]]
molecule = "CC(C)CC(N[C@@H](Cc1cncn1Cc1cccc2ccccc12)C(=O)O)C(=O)O (single isomer, unassigned) [GK]"
value = "10 to 50 µM"

[[record]]
molecule = "O=C(O)C(CCc1ccccc1)N[C@@H](Cc1c[nH]cn1)C(=O)O (stereo partly drawn) [DP]"
value = "> 50 µM"

[[record]]
molecule = "CC(C)CC(N[C@H](Cc1cn(C)cn1)C(=O)O)C(=O)O (stereo partly drawn) [CA]"
value = "> 50 µM"

[[record]]
molecule = "CC(C)CC(N[C@@H](Cc1cnc[nH]1)C(=O)NCCc1ccccc1)C(=O)O (single isomer, unassigned) [FX]"
value = "> 50 µM"

[[record]]
molecule = "O=C(O)C(Cc1ccccc1)NC(C(=O)O)c1ccccc1 (stereo not drawn) [BO]"
value = "10 to 50 µM"

[[record]]
molecule = "CC(C)CC(N[C@H](Cc1c[nH]cn1)C(=O)O)C(=O)O (single isomer, unassigned) [BJ]"
value = "> 50 µM"

[[record]]
molecule = "CC(C)C[C@H](NC(C(=O)O)c1ccc2ccccc2c1)C(=O)O (stereo partly drawn) [BR]"
value = "> 50 µM"

[[record]]
molecule = "CC(C)C[C@H](NC(=O)NCCc1ccccc1)C(=O)O [DV]"
value = "< 10 µM"

[[record]]
molecule = "CCCC(N[C@H](Cc1c[nH]c2ccccc12)C(=O)O)C(=O)O (stereo partly drawn) [X]"
value = "> 50 µM"

[[record]]
molecule = "CC(C)C[C@H](N[C@H](CCc1ccccc1)C(=O)O)C(=O)O [E]"
value = "> 50 µM"

[[record]]
molecule = "COC(=O)[C@H](Cc1c[nH]cn1)NC(CC(C)C)C(=O)O (single isomer, unassigned) [CT]"
value = "> 50 µM"

[[record]]
molecule = "COc1ccc(CCNC(=O)[C@H](Cc2cnc[nH]2)NC(CC(C)C)C(=O)O)cc1 (single isomer, unassigned) [FK]"
value = "> 50 µM"

[[record]]
molecule = "CC(C)CC(N[C@@H](Cc1cncn1Cc1ccc(Cl)cc1)C(=O)O)C(=O)O (single isomer, unassigned) [GM]"
value = "10 to 50 µM"


###

# tested-on: ACE-2 (Homo sapiens, UniProt Q9BYF1)
# Construct: a stop codon inserted after the serine immediately preceding the transmembrane domain; made in house; host or cells: CHO K1 cells (transient transfection, purified from conditioned medium)
# Sequence (Q9BYF1 18-740 limits assumed): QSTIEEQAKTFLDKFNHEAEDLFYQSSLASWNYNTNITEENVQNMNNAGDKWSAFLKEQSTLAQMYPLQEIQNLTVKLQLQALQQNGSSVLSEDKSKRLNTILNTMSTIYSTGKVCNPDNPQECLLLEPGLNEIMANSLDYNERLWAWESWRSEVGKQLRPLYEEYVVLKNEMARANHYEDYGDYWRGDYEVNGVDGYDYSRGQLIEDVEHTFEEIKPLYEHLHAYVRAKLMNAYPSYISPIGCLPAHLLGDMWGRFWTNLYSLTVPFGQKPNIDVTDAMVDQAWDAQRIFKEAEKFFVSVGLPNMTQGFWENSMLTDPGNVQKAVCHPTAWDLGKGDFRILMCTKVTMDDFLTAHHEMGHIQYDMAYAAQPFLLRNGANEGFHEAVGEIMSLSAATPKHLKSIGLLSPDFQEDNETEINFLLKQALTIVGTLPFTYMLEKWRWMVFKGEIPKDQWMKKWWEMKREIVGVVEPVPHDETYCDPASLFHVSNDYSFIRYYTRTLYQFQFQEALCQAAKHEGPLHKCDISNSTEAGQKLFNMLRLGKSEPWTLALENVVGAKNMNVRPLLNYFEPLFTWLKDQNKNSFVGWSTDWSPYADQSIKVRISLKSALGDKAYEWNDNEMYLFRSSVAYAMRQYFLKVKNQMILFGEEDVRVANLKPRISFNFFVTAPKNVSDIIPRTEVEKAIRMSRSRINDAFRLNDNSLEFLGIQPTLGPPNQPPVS
# assay-summary: ACE-2 Competitive Substrate Assay (ACS Assay)
# Type: biochemical
# measurement-parameters: Ki class; compounds tested in 5% DMSO, 12 compound concentrations, Ki=Kiapp/(1+[S]/Km); read-out: Human ACE-2 Activity
endpoint: Ki

[[record]]
molecule = "CC(C)C[C@H](N[C@@H](CC(=O)Nc1nc2ccc(Br)cc2s1)C(=O)O)C(=O)O [MR]"
tested_on = "ACE-2 (Homo sapiens, UniProt Q9BYF1)"
value = "< 0.1 µM"

[[record]]
molecule = "CCCCc1ccc(Cn2cncc2C[C@H](NC(CC(C)C)C(=O)O)C(=O)O)cc1 (single isomer, unassigned) [HI]"
tested_on = "ACE-2 (Homo sapiens, UniProt Q9BYF1)"
value = "0.1 to 0.5 µM"

[[record]]
molecule = "CCC(CC)Cn1cncc1C[C@H](NC(CC(C)C)C(=O)O)C(=O)O (single isomer, unassigned) [JM]"
tested_on = "ACE-2 (Homo sapiens, UniProt Q9BYF1)"
value = "< 0.1 µM"

[[record]]
molecule = "CC(C)C[C@@H](N[C@H](Cc1cncn1Cc1cc(Cl)cc(Cl)c1)C(=O)O)C(=O)O [MZ]"
tested_on = "ACE-2 (Homo sapiens, UniProt Q9BYF1)"
value = "0.1 to 0.5 µM"

